The reported numbers originate from ChEMBL document CHEMBL3603774.

System: Klebsiella pneumoniae
Test: Antibacterial activity against Klebsiella pneumoniae MTCC 3384 assessed as concentration required to completely destroy test microorganisms after 24 hrs
Type: functional
Conditions: MTCC 3384, 24 h
Please respond with Fulfilled when measured MBC is strictly beneath 200 µg/mL, and with Not fulfilled in all other cases.

CCOC(=O)c1c(-c2ccccc2)nn(-c2ccccc2)c1COc1cc(OC)c(C=O)c(OC)c1	Fulfilled
CCOC(=O)c1c(-c2ccccc2)nn(-c2ccccc2)c1Cn1c(S)nc2ccc(OC(F)F)cc21	Fulfilled
CCOC(=O)c1c(-c2ccccc2)nn(-c2ccccc2)c1COc1ccccc1C=O	Not fulfilled
CCOC(=O)c1c(-c2ccccc2)nn(-c2ccccc2)c1Cn1cnc2cc(C)ccc21	Not fulfilled
CCOC(=O)c1c(-c2ccccc2)nn(-c2ccccc2)c1Cn1c(S)nc2ccccc21	Fulfilled
CCOC(=O)c1c(-c2ccccc2)nn(-c2ccccc2)c1Cn1cnc2ccccc21	Not fulfilled
CCOC(=O)c1c(-c2ccccc2)nn(-c2ccccc2)c1COCc1c(-c2ccc(F)cc2)nc(N(C)S(C)(=O)=O)nc1C(C)C	Not fulfilled
CCOC(=O)c1c(-c2ccccc2)nn(-c2ccccc2)c1Cn1c(Cl)nc2ccccc21	Fulfilled
